The reported numbers originate from ChEMBL document CHEMBL1129040.

TARGET DESC: Sterol O-acyltransferase 1 (Rattus norvegicus)
EXPERIMENT NOTES: In vitro inhibitory activity against acyl-coenzyme A:cholesterol acyltransferase 1 from rat hepatic microsomes at 10 uM
READOUT KIND: inhibition (%)

molecule=O=C(N[C@H]1c2ccccc2C[C@@H]1c1ccc(O)cc1)C(c1ccccc1)c1ccccc1 target_desc="Sterol O-acyltransferase 1 (Rattus norvegicus)" value_observed=99
molecule=O=C(N[C@H]1CCCC[C@@H]1c1ccc(O)cc1)C(c1ccccc1)c1ccccc1 target_desc="Sterol O-acyltransferase 1 (Rattus norvegicus)" value_observed=94
molecule=O=C(N[C@H]1c2ccccc2CC[C@@H]1c1ccc(O)cc1)C(c1ccccc1)c1ccccc1 target_desc="Sterol O-acyltransferase 1 (Rattus norvegicus)" value_observed=93
molecule=O=C(N[C@@H]1c2ccccc2CC[C@@H]1c1cccc(O)c1)C(c1ccccc1)c1ccccc1 target_desc="Sterol O-acyltransferase 1 (Rattus norvegicus)" value_observed=77
molecule=COc1ccc2c(c1)[C@H](NC(=O)C(c1ccccc1)c1ccccc1)[C@@H](c1ccc(O)cc1)CC2 target_desc="Sterol O-acyltransferase 1 (Rattus norvegicus)" value_observed=98
molecule="COc1ccc(CC(NC(=O)C(c2ccccc2)c2ccccc2)c2ccc(OC)cc2)cc1 (stereo not given)" target_desc="Sterol O-acyltransferase 1 (Rattus norvegicus)" value_observed=40
molecule="O=C(NC(Cc1ccccc1)c1ccc(O)cc1)C(c1ccccc1)c1ccccc1 (stereo not given)" target_desc="Sterol O-acyltransferase 1 (Rattus norvegicus)" value_observed=95
molecule=O=C(N[C@@H]1CCCC[C@@H]1c1ccc(O)cc1)C(c1ccccc1)c1ccccc1 target_desc="Sterol O-acyltransferase 1 (Rattus norvegicus)" value_observed=80
molecule="COc1ccc(C(Cc2ccccc2)NC(=O)C(c2ccccc2)c2ccccc2)cc1 (stereo not given)" target_desc="Sterol O-acyltransferase 1 (Rattus norvegicus)" value_observed=88
molecule=O=C(N[C@H]1c2cc(O)ccc2CC[C@@H]1c1ccccc1)C(c1ccccc1)c1ccccc1 target_desc="Sterol O-acyltransferase 1 (Rattus norvegicus)" value_observed=94
molecule=COc1ccc([C@H]2CCCC[C@H]2NC(=O)C(c2ccccc2)c2ccccc2)cc1 target_desc="Sterol O-acyltransferase 1 (Rattus norvegicus)" value_observed=77
molecule=O=C(N[C@H]1c2ccccc2CC[C@@H]1c1cccc(O)c1)C(c1ccccc1)c1ccccc1 target_desc="Sterol O-acyltransferase 1 (Rattus norvegicus)" value_observed=98
molecule=O=C(N[C@@H]1c2ccc(O)cc2CC[C@@H]1c1ccccc1)C(c1ccccc1)c1ccccc1 target_desc="Sterol O-acyltransferase 1 (Rattus norvegicus)" value_observed=87
molecule=O=C(N[C@@H]1c2cc(O)ccc2CC[C@@H]1c1ccccc1)C(c1ccccc1)c1ccccc1 target_desc="Sterol O-acyltransferase 1 (Rattus norvegicus)" value_observed=84
molecule=O=C(N[C@@H]1c2ccccc2CC[C@@H]1c1ccc(O)cc1)C(c1ccccc1)c1ccccc1 target_desc="Sterol O-acyltransferase 1 (Rattus norvegicus)" value_observed=91
molecule="O=C(NC(Cc1ccc(O)cc1)c1ccccc1)C(c1ccccc1)c1ccccc1 (stereo not given)" target_desc="Sterol O-acyltransferase 1 (Rattus norvegicus)" value_observed=92
molecule="COc1ccc(CC(NC(=O)C(c2ccccc2)c2ccccc2)c2ccccc2)cc1 (stereo not given)" target_desc="Sterol O-acyltransferase 1 (Rattus norvegicus)" value_observed=92
molecule=O=C(N[C@@H]1c2ccccc2C[C@@H]1c1ccc(O)cc1)C(c1ccccc1)c1ccccc1 target_desc="Sterol O-acyltransferase 1 (Rattus norvegicus)" value_observed=99
molecule=COc1ccc([C@H]2CCCC[C@@H]2NC(=O)C(c2ccccc2)c2ccccc2)cc1 target_desc="Sterol O-acyltransferase 1 (Rattus norvegicus)" value_observed=100
molecule=O=C(N[C@H]1c2ccc(O)cc2CC[C@@H]1c1ccccc1)C(c1ccccc1)c1ccccc1 target_desc="Sterol O-acyltransferase 1 (Rattus norvegicus)" value_observed=92
